# Assay text: Stability in simulated intestinal fluid
# Assay type: in vitro ADME
# Conditions used: simulated gi fluid; 2 μM, 37° C., pH 7.5; read-out: half-life (t1/2) in simulated intestinal fluid
molecules and their reported half-life

Here is how some molecules turned out for half-life.
**Q:** Kindly indicate its recorded half-life. Item: CCc1cc(OC)ccc1-c1ccc(CC(NC(=O)[C@H](CC(=O)O)NC(=O)[C@H](CO)NC(=O)[C@@H](NC(=O)C(C)(Cc2ccccc2F)NC(=O)[C@@H](NC(=O)CNC(=O)[C@H](CCC(N)=O)NC(=O)C(C)(C)NC(=O)[C@@H](N)Cc2c[nH]cn2)[C@@H](C)O)[C@@H](C)O)C(=O)NC(Cc2ccc(-c3ccccc3C(F)(F)F)cc2)C(N)=O)cc1 (single isomer, unassigned)
**A:** > 24 h

**Q:** // Input: CCc1cc(OC)ccc1-c1ccc(CC(NC(=O)[C@H](CC(=O)O)NC(=O)[C@H](CO)NC(=O)[C@@H](NC(=O)[C@H](Cc2ccccc2)NC(=O)[C@@H](NC(=O)CNC(=O)[C@H](CCC(N)=O)NC(=O)C(C)(C)NC(=O)[C@@H](N)Cc2c[nH]cn2)[C@@H](C)O)[C@@H](C)O)C(=O)NC(Cc2ccc(-c3ccccc3F)cc2)C(N)=O)cc1 (single isomer, unassigned) . Output its half-life only.
**A:** > 24 h

Note: attention shifts to another entry.
**Q:** Specify half-life for CCc1cc(OC)ccc1-c1ccc(CC(NC(=O)[C@H](CC(=O)O)NC(=O)[C@H](CO)NC(=O)[C@@H](NC(=O)[C@H](Cc2ccccc2)NC(=O)[C@@H](NC(=O)CNC(=O)[C@H](CCC(N)=O)NC(=O)C2(NC(=O)[C@@H](N)Cc3c[nH]cn3)CC2)[C@@H](C)O)[C@@H](C)O)C(=O)NC(Cc2ccc(-c3ccccc3C)nc2)C(N)=O)cc1 (single isomer, unassigned) and stop.
**A:** > 24 h

###

# Assay text: Stability in simulated gastric fluid
# Assay type: in vitro ADME
# Conditions used: 2 μM, 37° C., 24 h, pH 1.5, pepsin
// values below are reported % degradation in 24 h when incubated with simulated gastric fluid
Output spec: scalar in %, unitless text.

**Q:** Look up % degradation in 24 h when incubated with simulated gastric fluid of CCc1cc(OC)ccc1-c1ccc(CC(NC(=O)[C@H](CC(=O)O)NC(=O)[C@H](CO)NC(=O)[C@@H](NC(=O)[C@H](Cc2ccccc2)NC(=O)[C@@H](NC(=O)CNC(=O)[C@H](CCC(N)=O)NC(=O)[C@H](C)NC(=O)[C@@H](N)Cc2c[nH]cn2)[C@@H](C)O)[C@@H](C)O)C(=O)NC(Cc2ccc(-c3ccccc3C(F)(F)F)cc2)C(N)=O)cc1 (single isomer, unassigned) and report it.
**A:** 100

**Q:** Query % degradation in 24 h when incubated with simulated gastric fluid for CCc1cc(OC)ccc1-c1ccc(CC(NC(=O)[C@H](CC(=O)O)NC(=O)[C@H](CO)NC(=O)[C@@H](NC(=O)[C@H](Cc2ccccc2)NC(=O)[C@@H](NC(=O)CNC(=O)[C@H](CCC(N)=O)NC(=O)C2(NC(=O)[C@@H](N)Cc3c[nH]cn3)CC2)[C@@H](C)O)[C@@H](C)O)C(=O)NC(Cc2ccc(-c3ccccc3F)cc2)C(N)=O)cc1 (single isomer, unassigned)
**A:** 43

**Q:** Name the recorded % degradation in 24 h when incubated with simulated gastric fluid of the item CCc1cc(OC)ccc1-c1ccc(CC(NC(=O)[C@H](CC(=O)O)NC(=O)[C@H](CO)NC(=O)[C@@H](NC(=O)C(C)(Cc2ccccc2F)NC(=O)[C@@H](NC(=O)CNC(=O)[C@H](CCC(N)=O)NC(=O)[C@H](C)NC(=O)[C@@H](N)Cc2c[nH]cn2)[C@@H](C)O)[C@@H](C)O)C(=O)NC(Cc2ccc(-c3ccccc3C(F)(F)F)cc2)C(N)=O)cc1 (single isomer, unassigned) in your answer.
**A:** 12

**Q:** Identify measured % degradation in 24 h when incubated with simulated gastric fluid associated with CCc1cc(OC)ccc1-c1ccc(CC(NC(=O)[C@H](CC(=O)O)NC(=O)[C@H](CO)NC(=O)[C@@H](NC(=O)C(C)(Cc2ccccc2F)NC(=O)[C@@H](NC(=O)CNC(=O)[C@H](CCC(N)=O)NC(=O)C2(NC(=O)[C@@H](N)Cc3c[nH]cn3)CC2)[C@@H](C)O)[C@@H](C)O)C(=O)NC(Cc2ccc(-c3ccccc3C)cc2)C(N)=O)cc1 (single isomer, unassigned)
**A:** 00

**Q:** Specify reported % degradation in 24 h when incubated with simulated gastric fluid for the compound shown: CCc1cc(OC)ccc1-c1ccc(CC(NC(=O)[C@H](CC(=O)O)NC(=O)[C@H](CO)NC(=O)[C@@H](NC(=O)C(C)(Cc2ccccc2F)NC(=O)[C@@H](NC(=O)CNC(=O)[C@H](CCC(N)=O)NC(=O)C2(NC(=O)[C@@H](N)Cc3c[nH]cn3)CC2)[C@@H](C)O)[C@@H](C)O)C(=O)NC(Cc2ccc(-c3ccccc3C)nc2)C(N)=O)cc1 (single isomer, unassigned)
**A:** 00

New cases:
**Q:** Specify measured % degradation in 24 h when incubated with simulated gastric fluid for CCc1cc(OC)ccc1-c1ccc(CC(NC(=O)[C@H](CC(=O)O)NC(=O)[C@H](CO)NC(=O)[C@@H](NC(=O)[C@H](Cc2ccccc2)NC(=O)[C@@H](NC(=O)CNC(=O)[C@H](CCC(N)=O)NC(=O)[C@H](CO)NC(=O)[C@@H](N)Cc2c[nH]cn2)[C@@H](C)O)[C@@H](C)O)C(=O)NC(Cc2ccc(-c3ccccc3C)cc2)C(N)=O)cc1 (single isomer, unassigned) .
**A:** 100

**Q:** Assign % degradation in 24 h when incubated with simulated gastric fluid to the following record: CCc1cc(OC)ccc1-c1ccc(CC(NC(=O)[C@H](CC(=O)O)NC(=O)[C@H](CO)NC(=O)[C@@H](NC(=O)C(C)(Cc2ccccc2F)NC(=O)[C@@H](NC(=O)CNC(=O)[C@H](CCC(N)=O)NC(=O)C(C)(C)NC(=O)[C@@H](N)Cc2c[nH]cn2)[C@@H](C)O)[C@@H](C)O)C(=O)NC(Cc2ccc(-c3ccccc3C)cc2)C(N)=O)cc1 (single isomer, unassigned)
**A:** 00
